- system: human recombinant dopamine D2 receptor (Homo sapiens (Human), UniProt P14416)
- Sequence (P14416 whole entry): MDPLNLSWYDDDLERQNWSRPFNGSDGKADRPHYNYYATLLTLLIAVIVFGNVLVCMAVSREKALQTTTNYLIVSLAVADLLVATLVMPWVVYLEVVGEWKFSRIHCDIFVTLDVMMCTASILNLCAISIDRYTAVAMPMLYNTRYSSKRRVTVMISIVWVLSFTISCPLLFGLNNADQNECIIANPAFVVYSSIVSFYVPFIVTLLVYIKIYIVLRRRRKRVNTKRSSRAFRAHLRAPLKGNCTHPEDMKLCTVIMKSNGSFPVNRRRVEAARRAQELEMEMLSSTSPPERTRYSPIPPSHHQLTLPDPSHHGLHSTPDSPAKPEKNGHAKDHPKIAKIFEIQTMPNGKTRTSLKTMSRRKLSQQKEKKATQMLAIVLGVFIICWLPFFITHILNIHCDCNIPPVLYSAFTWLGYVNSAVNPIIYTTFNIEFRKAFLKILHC
- assay method text: Test of binding inhibition for the human dopamine D2 receptor ([3H]-Metylspiperone SPA binding)
- condition summary: [3H]-Metylspiperone 1.2 nM, Jump-In HEK cell membranes, read-out: hD2_Ki
pKi: −log10 of the molar value.
quantity kind: pKi

[[record]]
compound = "Cc1cnc(CC(=O)N[C@H]2CC[C@H](CCN3CCc4nc(OCC(F)(F)F)sc4CC3)OC2)o1 [III-220]"
relation_qualifier = "="
recorded_measurement = 5.96

[[record]]
compound = "Cn1cc(OCC(=O)N[C@H]2CC[C@](F)(CCN3CCc4nc(OCC(F)(F)F)sc4CC3)CC2)cn1 [III-268]"
relation_qualifier = "="
recorded_measurement = 6.47

[[record]]
compound = "CC(CF)Oc1nc2c(s1)CCN(CC[C@H]1CC[C@H](NC(=O)c3cccc4nn(C)cc34)CC1)CC2 (stereo partly drawn) [III-159]"
relation_qualifier = "<"
recorded_measurement = 5.77

[[record]]
compound = "Cc1ncc(CC(=O)N[C@H]2CC[C@H](CCN3CCc4cn(CCC(F)(F)F)nc4CC3)CC2)s1 [II-088]"
relation_qualifier = "<"
recorded_measurement = 5.72

[[record]]
compound = "Cn1c(-c2ccccc2)nc2c1CCN(CC[C@H]1CC[C@H](NC(=O)c3cccc4ncccc34)CC1)C2 [Compound I-070]"
relation_qualifier = "="
recorded_measurement = 6.30

[[record]]
compound = "Cc1ncc(CC(=O)N[C@H]2CC[C@](F)(CCN3CCc4nc(OCC(F)(F)F)sc4CC3)CC2)o1 [III-262]"
relation_qualifier = "="
recorded_measurement = 6.25

[[record]]
compound = "O=C(NCCCCN1CCc2sc(OCC(F)(F)F)nc2C1)c1ccc2ccccc2c1 [Compound I-140]"
relation_qualifier = "="
recorded_measurement = 5.92

[[record]]
compound = "CCCOc1nc2c(s1)CCN(CC[C@H]1CC[C@H](NC(=O)c3cccc4nn(C)cc34)CC1)C2 [III-544]"
relation_qualifier = "<"
recorded_measurement = 5.77

[[record]]
compound = "Cc1cnc(CC(=O)N[C@H]2CC[C@](F)(CCN3CCc4nc(OCC(F)(F)F)sc4CC3)CC2)o1 [III-266]"
relation_qualifier = "<"
recorded_measurement = 5.74

[[record]]
compound = "Cn1ccc2c(C(=O)N[C@H]3CC[C@H](CCN4CCc5sc(OCC(C)(F)F)nc5C4)CC3)cccc2c1=O [III-630]"
relation_qualifier = "<"
recorded_measurement = 5.72

[[record]]
compound = "CC(C)C(=O)N[C@H]1CC[C@H](CCN2CCc3nc(OCC(F)(F)F)sc3CC2)CC1 [III-031]"
relation_qualifier = "="
recorded_measurement = 6.62

[[record]]
compound = "Cc1ncc(CC(=O)N[C@H]2CC[C@H](CCN3CCc4ccc(OCC(F)(F)F)nc4CC3)OC2)o1 [III-231]"
relation_qualifier = "="
recorded_measurement = 6.31

[[record]]
compound = "O=C(N[C@H]1CC[C@H](CCN2CCc3nc(-c4ccccc4)sc3C2)CC1)c1cccc2ncccc12 [Compound I-018]"
relation_qualifier = "<"
recorded_measurement = 5.77

[[record]]
compound = "Cn1cc2c(C(=O)N[C@H]3CC[C@H](CCN4CCc5sc(N6CC(F)(F)C6)nc5C4)CC3)cccc2n1 [III-439]"
relation_qualifier = "="
recorded_measurement = 6.30

[[record]]
compound = "Cc1cnc(CC(=O)N[C@H]2CC[C@H](CCN3CCc4sc(CCC(F)(F)F)nc4C3)CC2)o1 [III-698]"
relation_qualifier = "="
recorded_measurement = 6.11

[[record]]
compound = "Cc1nc(CC(=O)N[C@H]2CC[C@](F)(CCN3CCc4nc(OCC(F)(F)F)sc4CC3)CC2)no1 [III-264]"
relation_qualifier = "<"
recorded_measurement = 5.74

[[record]]
compound = "Cc1ncc(CC(=O)N[C@H]2CC[C@H](CCN3CCc4nc(OCC(C)(C)F)sc4CC3)CC2)s1 [II-099]"
relation_qualifier = "<"
recorded_measurement = 5.72

[[record]]
compound = "Cc1cc2c(C(=O)N[C@H]3CC[C@H](CCN4CCc5nc(OCC(F)(F)F)sc5CC4)OC3)cccn2n1 [III-169]"
relation_qualifier = "="
recorded_measurement = 6.42

[[record]]
compound = "Cn1cc2c(C(=O)N[C@H]3CC[C@H](CCN4CCc5sc(CCC(F)F)nc5C4)CC3)cccc2n1 [III-685]"
relation_qualifier = "="
recorded_measurement = 6.55

[[record]]
compound = "Cn1cc2c(C(=O)N[C@H]3CC[C@H](CCN4CCc5sc(OCC(C)(F)F)nc5C4)CC3)ccc(F)c2n1 [III-666]"
relation_qualifier = "="
recorded_measurement = 6.68

[[record]]
compound = "Cc1ncc(CC(=O)N[C@H]2CC[C@H](CCN3CCc4ccc(OCC(F)F)nc4CC3)CC2)s1 [II-005]"
relation_qualifier = "="
recorded_measurement = 6.37

[[record]]
compound = "CCn1c(C(=O)N[C@H]2CC[C@H](CCN3CCc4sc(CCC(F)(F)F)nc4C3)CC2)cccc1=O [III-704]"
relation_qualifier = "="
recorded_measurement = 6.42

[[record]]
compound = "CC(C)Oc1ccc2c(n1)CCN(CC[C@H]1CC[C@H](NC(=O)c3cccc4nn(C)cc34)CC1)CC2 [II-050]"
relation_qualifier = "<"
recorded_measurement = 5.74

[[record]]
compound = "Cn1cc(OCC(=O)N[C@H]2CC[C@H](CCN3CCc4nc(OCC(F)(F)F)sc4CC3)OC2)cn1 [III-175]"
relation_qualifier = "="
recorded_measurement = 6.19

[[record]]
compound = "Cc1ncc(/C=C/C(=O)N[C@H]2CC[C@H](CCN3CCc4nc(OCC(F)F)sc4CC3)CC2)s1 [III-274]"
relation_qualifier = "="
recorded_measurement = 6.85

[[record]]
compound = "Cn1cc(CC(=O)N[C@H]2CC[C@H](CCN3CCc4sc(COC(F)(F)F)nc4C3)CC2)cn1 [III-622]"
relation_qualifier = "<"
recorded_measurement = 5.74

[[record]]
compound = "Cn1cc2ccc(C(=O)N[C@H]3CC[C@H](CCN4CCc5nc(OCC(F)F)sc5CC4)CC3)cc2n1 [III-270]"
relation_qualifier = "="
recorded_measurement = 5.96

[[record]]
compound = "Cn1cc2c(C(=O)N[C@H]3CC[C@H](CCN4CCc5nc(OCC(C)(C)F)sc5CC4)CC3)cccc2n1 [III-076]"
relation_qualifier = "<"
recorded_measurement = 5.77

[[record]]
compound = "CN1Cc2c(C(=O)N[C@H]3CC[C@H](CCN4CCc5sc(OCC(F)(F)F)nc5C4)CC3)cccc2C1=O [III-610]"
relation_qualifier = "="
recorded_measurement = 6.48

[[record]]
compound = "Cn1cc2c(C(=O)N[C@H]3CC[C@H](C(O)CN4CCc5ccc(OCC(F)(F)F)nc5CC4)CC3)cccc2n1 (stereo partly drawn) [III-248]"
relation_qualifier = "<"
recorded_measurement = 5.72


Reference for the values: patent US10870660B2
